TEST_READOUT: melting point

*Q* I'd like to know its melting point. The molecule in question is `CCn1cc(-c2ccccc2)c(=O)c(-c2cccc(C)c2)c1`
*A* 87 to 89 °C

*Q* I'd like to know its melting point. The molecule in question is O=C1Nc2ccc(C(F)(F)F)cc2C1c1ncnc2nn(C3CCCC3)cc12 (configuration not stated)
*A* 292 to 293 °C

*Q* I'd like to know its melting point. The molecule in question is `O=C(O)c1cc(=O)c2cc(OC(F)(F)F)ccc2o1`
*A* 192 to 194 °C

*Q* I'd like to know its melting point. The molecule in question is `CCOC(=O)CCc1ccc2cc(O)ccc2c1`
*A* 90 to 91 °C

*Q* I'd like to know its melting point. The molecule in question is `CS(=O)(=O)OC1CN(C(c2ccccc2)c2ccccc2)C1`
*A* 85 to 87 °C

*Q* I'd like to know its melting point. The molecule in question is `COC(=O)C=Nc1cc(Cl)ccc1C(=O)O`
*A* 201 to 203 °C

*Q* I'd like to know its melting point. The molecule in question is CS(=O)c1ccccc1C(=O)Nc1ccccc1 (configuration not stated)
*A* 194 to 195 °C

====

TEST_READOUT: melting point

*Q* I'd like to know its melting point. The compound in question is CS(=O)c1cc(OCC(O)CNC2CCN(c3ccc(NS(=O)(=O)c4ccc(Br)cc4)cn3)CC2)ccc1O (stereo unspecified)
*A* 147 °C

*Q* I'd like to know its melting point. The compound in question is N#Cc1cccc2c1N(Cc1ccc(Cl)s1)C(=O)C21COc2cc3c(cc21)OCO3 (stereo unspecified)
*A* 192 to 193 °C

*Q* I'd like to know its melting point. The compound in question is CCOC(=O)C1(Cc2cccc(C)c2Br)CN(Cc2ccccc2)CCC1=O (stereo unspecified)
*A* 60 to 61 °C

*Q* I'd like to know its melting point. The compound in question is `O=C(O)c1cnn(-c2c(Cl)cc(C(F)(F)F)cc2Cl)n1`
*A* 155 to 157 °C

*Q* I'd like to know its melting point. The compound in question is `O=C(Nc1ccccc1)C(=O)N1CCC(Cc2ccccc2)CC1`
*A* 125 to 128 °C

*Q* I'd like to know its melting point. The compound in question is `O=S1(=O)c2cccc3cccc(c23)N1CCCN1CC=C(c2c[nH]c3ccc(Cl)cc23)CC1`
*A* 189 °C

*Q* I'd like to know its melting point. The compound in question is COc1ccc(C2C(=O)c3ccc(OC)cc3C2=O)cc1 (stereo unspecified)
*A* 163 °C

*Q* I'd like to know its melting point. The compound in question is `CC1(C)c2cc(C(=O)O)ccc2Oc2ncccc21`
*A* 241 to 242 °C

*Q* I'd like to know its melting point. The compound in question is `COCCNC(=O)c1cc2cc(OCCNC[C@H](O)COc3ccccc3)ccc2o1`
*A* 95 to 96 °C

*Q* I'd like to know its melting point. The compound in question is CCOc1cc2c(cc1O[Si](C)(C)C(C)(C)C)C(=O)CC1C2CCC2(C)C(O[Si](C)(C)C(C)(C)C)CCC12 (stereo unspecified)
*A* 150 to 151 °C

*Q* I'd like to know its melting point. The compound in question is `NC(=O)C(=Cc1c[nH]c2ncccc12)c1ccccc1`
*A* 222 to 224 °C

====

For each entry below, report its melting point value.

*Q* I'd like to know its melting point. The compound in question is `Cc1c(CNCC(C)C)n(C)c2ccc(NC(=O)c3ccc(OCC4CC4)cc3)cc12`
*A* 142 to 143 °C

*Q* I'd like to know its melting point. The compound in question is `O=C(O)c1ccc2c(c1)c(=O)[nH]c(=O)n2CCCCN1CCC(OC(c2ccccc2)c2ccccc2)CC1`
*A* 161 to 163 °C

*Q* I'd like to know its melting point. The compound in question is `Cc1cc(-c2cc3cc(OCCNC[C@H](O)COc4ccccc4)ccc3o2)no1`
*A* 144 to 146 °C

*Q* I'd like to know its melting point. The compound in question is `COc1ccc(-c2ccc(C(=O)Nc3cccc(CC(=O)O)c3)o2)cc1`
*A* 179 to 180 °C

*Q* I'd like to know its melting point. The compound in question is `CCOC(=O)c1[nH]c(C(=O)OCC)c(C)c1C`
*A* 66 to 68 °C

*Q* I'd like to know its melting point. The compound in question is `Cc1cc(OCCN)ccc1NC(=O)c1ccc(N2CCNCC2)cc1`
*A* > 250 °C

*Q* I'd like to know its melting point. The compound in question is `COc1cc(Oc2nn(C)c(C(F)(F)F)c2Cl)ccc1[N+](=O)[O-]`
*A* 71 to 73.5 °C

*Q* I'd like to know its melting point. The compound in question is `CN(c1nc(N)no1)c1c(Cl)cccc1Cl`
*A* 177 to 178 °C

*Q* I'd like to know its melting point. The compound in question is Cc1cc2c(c(C)c1N)C(c1ccc(C(C)C)cc1)C(C)(C)O2 (stereo not given)
*A* 98 to 100 °C

*Q* I'd like to know its melting point. The compound in question is `CCc1cn2c(=O)c(C(=O)O)cnc2c2ccccc12`
*A* 221 to 223 °C

*Q* I'd like to know its melting point. The compound in question is `COc1cc(NC(C)=O)ccc1OCCO`
*A* 157 to 159 °C

*Q* I'd like to know its melting point. The compound in question is CS(=O)(=O)Nc1cc(F)cc(C(O)CN)c1 (stereo not given)
*A* 167 to 169 °C

*Q* I'd like to know its melting point. The compound in question is `CC1(C)CCC(C)(C)c2cc(C#Cc3ccc(-c4nnn[nH]4)cc3)ccc21`
*A* 227 to 228 °C

*Q* I'd like to know its melting point. The compound in question is `O=C(O)COCCCCN(c1cnc(-c2ccccc2)c(-c2ccccc2)n1)C1CCCCC1`
*A* 130 to 131 °C

*Q* I'd like to know its melting point. The compound in question is `CCOC(=O)c1cnn(-c2ccc(OCC(CC)CC)c(C#N)c2)c1`
*A* 114 to 115 °C

*Q* I'd like to know its melting point. The compound in question is N#Cc1ccc(OCc2cnsc2)cc1OC(C(=O)O)c1ccccc1Cl (racemic)
*A* 194 to 197 °C

*Q* I'd like to know its melting point. The compound in question is `O=Cc1nc2cnccc2s1`
*A* 96.5 to 98 °C

*Q* I'd like to know its melting point. The compound in question is `CC(=O)Oc1ccccc1CC1c2ccccc2Oc2ccccc21`
*A* 77 to 79 °C

*Q* I'd like to know its melting point. The compound in question is `CC(=O)Nc1ccc(OCCCCl)cc1`
*A* 125 to 127 °C

*Q* I'd like to know its melting point. The compound in question is `COC(=O)CN(C)c1nc(-c2ccc(Cl)c(Cl)c2)cs1`
*A* 88 to 89 °C

*Q* I'd like to know its melting point. The compound in question is `O=[N+]([O-])c1ccccc1OCc1ccccc1`
*A* < 50 °C

*Q* I'd like to know its melting point. The compound in question is `CCCCCCCCCOC(=O)c1cc(-c2csc(-c3ccc(OCC)c(OCC)c3)n2)ccc1O`
*A* 67 to 68 °C

*Q* I'd like to know its melting point. The compound in question is CCC(C)(Oc1ccc(CC(=O)c2ccc3c(c2)CCC3)cc1)C(=O)O (stereo not given)
*A* 160 to 161 °C

*Q* I'd like to know its melting point. The compound in question is `CCCOc1cc2c(cc1-c1cc(-c3ccc(C(=O)O)cc3)ccc1-c1ccccc1)C(C)(C)CCC2(C)C`
*A* 234 °C

*Q* I'd like to know its melting point. The compound in question is CC1=C(N)C(C)C2CC(C)(CC3CCN(c4ccc(-n5ccnc5)cc4)CC3)OC2=C1C (stereo not given)
*A* 170 to 172 °C

*Q* I'd like to know its melting point. The compound in question is `Oc1ccc(-c2c[nH]c(-c3cccnc3)n2)cc1`
*A* 315 to 318 °C

*Q* I'd like to know its melting point. The compound in question is `CC(C)(C(=O)O)C(=O)NCc1cn(C(c2ccccc2)(c2ccccc2)c2ccccc2)cn1`
*A* 174 to 175 °C

*Q* I'd like to know its melting point. The compound in question is COCCOc1ccc(C#CC2(O)CN3CCC2CC3)c(CO)c1 (stereo not given)
*A* 98.5 to 100 °C

*Q* I'd like to know its melting point. The compound in question is FC(F)(F)Oc1ccc(C2NCCc3c2[nH]c2ccccc32)cc1 (stereo not given)
*A* 68 to 69 °C

*Q* I'd like to know its melting point. The compound in question is `Cc1ccccc1NC(=O)Nc1ccc(CC(=O)N[C@@H](CC(C)C)C(=O)O)cc1`
*A* 178 to 179 °C
